Hi there, I'd appreciate the recorded protein stability index for every entry that follows.
B1: MATN2 (parent)
chain: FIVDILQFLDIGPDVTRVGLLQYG

variants of: B1; assay: protein stability index of a GFP-peptide fusion (GPS, HEK-293T) (PSI 1-6); higher = more stable; conditions: c terminus: a fixed tail appended;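 also: lentivirally expressed fusions sorted by FACS into six bins by GFP to DsRed ratio, PSI derived from sequencing read proportions per bin multiplied by bin number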
Could you respond with only the numeric value?

Q: # input variant: D10E ; wanted: its protein stability index
Ans: 3.48

Q: # input variant: V3N ; wanted: its protein stability index
Ans: 3.33

Q: # input variant: P13V ; wanted: its protein stability index
Ans: 2.93

Q: # input variant: G12H ; wanted: its protein stability index
Ans: 3.69

Q: # input variant: R17M ; wanted: its protein stability index
Ans: 2.05

Q: # input variant: D4E ; wanted: its protein stability index
Ans: 2.88

Q: # input variant: I2G ; wanted: its protein stability index
Ans: 3.67

Q: # input variant: T16D ; wanted: its protein stability index
Ans: 2.7

Q: # input variant: Y23Q ; wanted: its protein stability index
Ans: 2.29

Q: # input variant: R17I ; wanted: its protein stability index
Ans: 2.77

Q: # input variant: R17N ; wanted: its protein stability index
Ans: 2.75

Q: # input variant: V18M ; wanted: its protein stability index
Ans: 2.55

Q: # input variant: Q22N ; wanted: its protein stability index
Ans: 1.93

Q: # input variant: V15D ; wanted: its protein stability index
Ans: 4.47

Q: # input variant: V18C ; wanted: its protein stability index
Ans: 2.58

Q: # input variant: T16P ; wanted: its protein stability index
Ans: 2.42

Q: # input variant: I5D ; wanted: its protein stability index
Ans: 3.18

Q: # input variant: D4K ; wanted: its protein stability index
Ans: 2.12

Q: # input variant: F1E ; wanted: its protein stability index
Ans: 2.04

Q: # input variant: L6W ; wanted: its protein stability index
Ans: 3.3

Q: # input variant: D14Y ; wanted: its protein stability index
Ans: 2.6

Q: # input variant: I2Y ; wanted: its protein stability index
Ans: 3.07

Hello, the source for this data is the supplement of paper PMC10567573, in case you need it.
